Reported GI50 values for a set of compounds
System: HCC 2998
Experiment: NCI tumour cell line growth inhibition, 48 h
Active and inactive are the calls of the source. No stated cut-off is given here; in the data, active = GI50 up to about 1.1 µM and inactive = higher.

{"compound": "CCOC(=O)/C=C(\\C(=O)OCC)n1cc(C)c(=O)n(Cc2cnnn2COCCOC(C)=O)c1=O", "GI50": "16.6 µM (inactive)"}
{"compound": "COc1ccc(/C=C/c2ccnc3ccccc23)cc1", "GI50": "20.1 µM (inactive)"}
{"compound": "CC(C)(C)CC(C)(C)N/C(N)=N/O", "GI50": "> 100 µM (inactive)"}
{"compound": "c1cncc(C2(c3cc4ccccc4[nH]3)COCO2)c1 (stereo not given)", "GI50": "> 100 µM (inactive)"}
{"compound": "CC1(Cc2ccccc2)NC(=S)NC1=O (stereo not given)", "GI50": "> 100 µM (inactive)"}
{"compound": "O=C(Cc1ccccc1)NN1C(=O)/C(=C\\c2cccc(O)c2)S/C1=N\\c1ccccc1", "GI50": "> 100 µM (inactive)"}
{"compound": "CSc1scc2c1/C(=N/NC(N)=O)CCC2", "GI50": "> 100 µM (inactive)"}
{"compound": "CC1(C)CCC[C@@]2(C)C1C[C@H](O)[C@@]1(C)O[C@@](C)([C@H](O)CO)CCC21 (stereo not given in full)", "GI50": "60.8 µM (inactive)"}
{"compound": "CC1=C(C(=O)Nc2cc(=O)n(C)c(=O)n2C)C(c2ccc([N+](=O)[O-])cc2)C(C(=O)Nc2cc(=O)n(C)c(=O)n2C)=C(C)N1", "GI50": "94.8 µM (inactive)"}
{"compound": "Cc1ccc2nc(NC(=O)C(=O)C3C(=O)NC(=S)NC3=O)sc2c1", "GI50": "> 100 µM (inactive)"}

* * *

Reported GI50 values for a set of molecules
Tested on: PC-3
Experiment: NCI tumour cell line growth inhibition, 48 h
Active and inactive are the calls of the source. Rule as the data show it: active = GI50 up to about 1.1 µM and inactive = higher.

{"molecule": "O=c1[nH]c(Nc2nc3ccccc3[nH]2)nc2c1CCC2", "GI50": "> 100 µM (inactive)"}
{"molecule": "O=S(=O)(c1cccc(C(F)(F)F)c1)N1c2ccccc2-n2cccc2C1c1cccnc1 (stereo unspecified)", "GI50": "10.7 µM (inactive)"}
{"molecule": "CC(C)Oc1c(C2(c3ccccc3)SCCCS2)c(=O)c1=O", "GI50": "> 100 µM (inactive)"}
{"molecule": "Cc1ccc(C(=O)CCC2C(=O)CC(C)(C)CC2=O)cc1", "GI50": "> 100 µM (inactive)"}
{"molecule": "CCCC1(N)CC(OC)OC(C)C1O (stereo unspecified)", "GI50": "> 100 µM (inactive)"}
{"molecule": "Fc1ccc(C(OCCN2CCC3CCC(C2)N3C/C=C/c2ccco2)c2ccc(F)cc2)cc1 (stereo unspecified)", "GI50": "8.2 µM (inactive)"}

* * *

Tested on: SK-MEL-2
Test: NCI tumour cell line growth inhibition, 48 h
The source made the active and inactive calls. Rule as the data show it: active = GI50 up to about 1.1 µM and inactive = higher.
Labels: y for active, n for inactive

{"molecule": "S=C1N=C(Cl)/C(=C\\c2ccco2)N1", "class": "n"}
{"molecule": "Nc1nc(N)c2ncn(Cc3ccccc3)c2n1", "class": "n"}
{"molecule": "Nc1ccccc1SC(/C=C/NNC1=NN=C(c2ccccc2)C(c2ccccc2)N1)c1ccccc1 (stereo unspecified)", "class": "n"}
{"molecule": "O=C(c1ccccc1)C(c1ccccc1)C1(O)C(=O)Nc2ccc(Br)cc21 (stereo unspecified)", "class": "n"}
{"molecule": "COc1ccc2c(c1)[C@@H](NC(C)=O)CCc1cc(OC)c(OC)c(OC)c1-2", "class": "y"}
{"molecule": "CCOC(=O)CCc1c(C)c2ccc(O)cc2oc1=O", "class": "n"}
